Tested on: Mus musculus
assayExplanation: Antipapilloma activity was determined after intraperitoneal administration in mice
Format: functional
measurementParameters: ip
measurementLabel: ED50 (mg/kg)
Kindly provide the numeric value in mg/kg only, without the unit symbol.

CC1=C(/C=C/C(C)=C/C=C/C(C)=C/C(=O)O)C(C)(C)CCC1 [TRETINOIN] : 400
CCOC(=O)/C=C(C)/C=C/C=C(C)/C=C/c1c(C)cc(OC)c(C)c1C [ETRETINATE] : 25
COc1cc(C)c(/C=C/C(C)=C/C=C(F)/C(C)=C/C(=O)O)c(C)c1C : 11.5
CCOC(=O)c1ccc(/C=C(\C)c2ccc3c(c2)C(C)(C)CCC3(C)C)cc1 [AROTINOID] : 0.05
CCOC(=O)/C=C(C)/C=C/C=C(C)/C=C/c1c(Cl)cc(OC)c(C)c1Cl : 6

Problem: Give ED50 for CC1=C(/C=C/C(C)=C/C=C/C(C)=C\C(=O)O)C(C)(C)CCC1 [ISOTRETINOIN]
Solution: 800

Problem: Respond only with ED50 recorded for `CCOC(=O)/C=C(C)/C=C/C=C(C)/C=C/c1c(C)sc(C)c1C`
Solution: 75
